Assay: activity coefficient (dimensionless); of the first substance listed, at infinite dilution; xn = mol fraction of the nth substance listed
Details: 358.15 K; 101 kPa; Liquid; Chromatography; x1 = 0
Outcome Measure: activity coefficient

CCC(C)CC [3-methylpentane] + CCCCCC[n+]1ccc2ccccc2c1.N#C[S-] : 24.7
CCOC(C)(C)C [2-ethoxy-2-methylpropane] + CCCCCC[n+]1ccc2ccccc2c1.N#C[S-] : 13.8
CC(C)=O [acetone] + CCCCCC[n+]1ccc2ccccc2c1.N#C[S-] : 1.3

[I] CCCCCCCCCC [decane] + CCCCCC[n+]1ccc2ccccc2c1.N#C[S-]
[II] C#CCCCCCC [1-octyne] + CCCCCC[n+]1ccc2ccccc2c1.N#C[S-]
Q. Would you mind telling me which has the lower recorded activity coefficient between I and II ? Your answer should be the label attached to the chosen record.
A. II

----------
Assay: activity coefficient (dimensionless); of the first substance listed, at infinite dilution; xn = mol fraction of the nth substance listed
Conditions: 358.15 K; 101 kPa; Liquid; Chromatography; x1 = 0
Outcome Measure: activity coefficient

c1ccccc1 [benzene] + CCCCCC[n+]1ccc2ccccc2c1.N#C[S-] : 1.48
C=CCCC [1-pentene] + CCCCCC[n+]1ccc2ccccc2c1.N#C[S-] : 10.7
C1=CCCCC1 [cyclohexene] + CCCCCC[n+]1ccc2ccccc2c1.N#C[S-] : 5.7

[1] O [water] + CCCCCC[n+]1ccc2ccccc2c1.N#C[S-]
[2] C=CCCCCCC [oct-1-ene] + CCCCCC[n+]1ccc2ccccc2c1.N#C[S-]
Q. Between 1 and 2 , which one shows the larger activity coefficient value? Your answer should be the label attached to the chosen record.
A. 2
(2: 23.2, 1: 0.399)

[I] CCCOCCC [dipropyl ether] + CCCCCC[n+]1ccc2ccccc2c1.N#C[S-]
[II] CCO [ethanol] + CCCCCC[n+]1ccc2ccccc2c1.N#C[S-]
Q. Between I and II , which one shows the larger activity coefficient value? Your answer should be the label attached to the chosen record.
A. I
(I: 11.9, II: 0.574)

----------
Experiment: activity coefficient (dimensionless); of the first substance listed, at infinite dilution; xn = mol fraction of the nth substance listed
Conditions: 318.15 K; 101 kPa; Liquid; Chromatography; x1 = 0
Outcome Measure: activity coefficient

[A] CC(C)CC(C)(C)C [2,2,4-trimethylpentane] + CCCCCC[n+]1ccc2ccccc2c1.N#C[S-]
[B] C=CCCCC [hex-1-ene] + CCCCCC[n+]1ccc2ccccc2c1.N#C[S-]
[C] CCC(C)(C)OC [2-methoxy-2-methylbutane] + CCCCCC[n+]1ccc2ccccc2c1.N#C[S-]
[D] C#CCCC [1-pentyne] + CCCCCC[n+]1ccc2ccccc2c1.N#C[S-]
Q. Using the list above, order everything by rising activity coefficient. Give the order by naming the labels one after another as requested.
A. D, C, B, A

----------
Assay: activity coefficient (dimensionless); of the first substance listed, at infinite dilution; xn = mol fraction of the nth substance listed
Conditions: 348.15 K; 101 kPa; Liquid; Chromatography; x1 = 0
Outcome Measure: activity coefficient

Reference set (4 entries):
Cc1ccccc1C [1,2-dimethylbenzene] + CCCCCC[n+]1ccc2ccccc2c1.N#C[S-] : 2.41
C=CCCCCC [1-heptene] + CCCCCC[n+]1ccc2ccccc2c1.N#C[S-] : 18.7
CCc1ccccc1 [ethylbenzene] + CCCCCC[n+]1ccc2ccccc2c1.N#C[S-] : 3.07
CCCO [propan-1-ol] + CCCCCC[n+]1ccc2ccccc2c1.N#C[S-] : 0.671

[P] C=CCCCC [hex-1-ene] + CCCCCC[n+]1ccc2ccccc2c1.N#C[S-]
[Q] O [water] + CCCCCC[n+]1ccc2ccccc2c1.N#C[S-]
[R] CCCCC(C)=O [2-hexanone] + CCCCCC[n+]1ccc2ccccc2c1.N#C[S-]
Q. Ordering criterion: activity coefficient; begin with the maximum. Give the order by naming the labels one after another as requested.
A. P, R, Q
(P: 14.4, R: 2.64, Q: 0.41)

[A] CCOC(C)(C)C [2-ethoxy-2-methylpropane] + CCCCCC[n+]1ccc2ccccc2c1.N#C[S-]
[B] C1CCOC1 [tetrahydrofuran] + CCCCCC[n+]1ccc2ccccc2c1.N#C[S-]
Q. Would you mind telling me which has the lower recorded activity coefficient between A and B ? Your answer should be the label attached to the chosen record.
A. B

[P] CCO [ethanol] + CCCCCC[n+]1ccc2ccccc2c1.N#C[S-]
[Q] C1COCCO1 [1,4-dioxane] + CCCCCC[n+]1ccc2ccccc2c1.N#C[S-]
[R] CCCC(=O)CC [3-hexanone] + CCCCCC[n+]1ccc2ccccc2c1.N#C[S-]
[S] CC1CCCCC1 [methylcyclohexane] + CCCCCC[n+]1ccc2ccccc2c1.N#C[S-]
Q. Form: Sort by [activity coefficient] Order [ ascending ] Give the order by naming the labels one after another as requested.
A. P, Q, R, S
(P: 0.581, Q: 1.27, R: 2.89, S: 16.4)

[1] CCC(=O)CC [pentan-3-one] + CCCCCC[n+]1ccc2ccccc2c1.N#C[S-]
[2] CC#N [acetonitrile] + CCCCCC[n+]1ccc2ccccc2c1.N#C[S-]
[3] CC(C)OC(C)C [diisopropyl ether] + CCCCCC[n+]1ccc2ccccc2c1.N#C[S-]
Q. Form: Sort by [activity coefficient] Order [ ascending ] Give the order by naming the labels one after another as requested.
A. 2, 1, 3
